Measured Ht values are reported for all entries that follow.
Organism: Rattus norvegicus
procedure-details: Open TG-GATES - Regimen: Single
Format: toxicity, organism-based, Sprague-Dawley
Parameters: regimen Single, gender Male, age 6 weeks
protocol-conditions: in vivo, po, 300 mg/kg, 3 h, tissue Blood, route gavage, dose level Middle
# number then unit; no other words

Known results for compounds:
| compound | outcome-measure | result |
| --- | --- | --- |
| O=C(O)c1cn(C2CC2)c2cc(N3CCNCC3)c(F)cc2c1=O | Ht | 39.5% |
| CCc1cc(C(N)=S)ccn1 [ETHIONAMIDE] | Ht | 40.6% |
| O=C(O)c1cc(/N=N/c2ccc(S(=O)(=O)Nc3ccccn3)cc2)ccc1O | Ht | 38.5% |
| Clc1ccccc1CN1CCc2sccc2C1 | Ht | 37.1% |

Let us move to another entry and its Ht.
Input C[C@H](CS)C(=O)N1CCC[C@H]1C(=O)O . Output Ht: 39.8%

====

Species: Rattus norvegicus
procedure-details: Open TG-GATES - Regimen: Single
Assay type: toxicity, organism-based, Sprague-Dawley
Design: regimen Single, gender Male, age 6 weeks
protocol-conditions: in vivo, po, 100 mg/kg, 3 h, tissue Plasma, route gavage, dose level Low
outcome-measure: DBIL (mg/dL)
Field: numeric (mg/dL). Do not append units.

Example entries and their recorded answers appear below.
| compound | DBIL [mg/dL] |
| --- | --- |
| C[C@H](CS)C(=O)N1CCC[C@H]1C(=O)O | 0.008 |
| O=C(O)c1cn(C2CC2)c2cc(N3CCNCC3)c(F)cc2c1=O | 0.018 |
| Clc1ccccc1CN1CCc2sccc2C1 | 0.076 |
| CCc1cc(C(N)=S)ccn1 [ETHIONAMIDE] | 0.012 |

# next compound below
response.value for O=C(O)c1cc(/N=N/c2ccc(S(=O)(=O)Nc3ccccn3)cc2)ccc1O (field: DBIL) = 0.068

====

Organism: Rattus norvegicus
procedure-details: Open TG-GATES - Regimen: Single
Assay type: toxicity, organism-based, Sprague-Dawley
Design: regimen Single, gender Male, age 6 weeks
protocol-conditions: in vivo, po, 1000 mg/kg, 6 h, tissue Plasma, route gavage, dose level High
Rule for this label: YES means TC is less than 80 mg/dL; NO means TC is at least 80 mg/dL.

The examples below pair each entry with its known result.
| compound | class-label |
| --- | --- |
| CCc1cc(C(N)=S)ccn1 [ETHIONAMIDE] | YES |
| C[C@H](CS)C(=O)N1CCC[C@H]1C(=O)O [CAPTOPRIL] | YES |
| O=C(O)c1cc(/N=N/c2ccc(S(=O)(=O)Nc3ccccn3)cc2)ccc1O [SULFASALAZINE] | YES |

Now look at this entry.
Data request: is_below(TC, 80 mg/dL) for Clc1ccccc1CN1CCc2sccc2C1 [TICLOPIDINE] ?
Data returned: NO

====

Species: Rattus norvegicus
procedure-details: Open TG-GATES - Regimen: Single
Format: toxicity, organism-based, Sprague-Dawley
Parameters: regimen Single, gender Male, age 6 weeks
protocol-conditions: in vivo, po, 1000 mg/kg, 3 h, tissue Blood, route gavage, dose level High
Readings of PT for the listed compounds
Reply with a number, then the unit it belongs to.

| compound | PT |
| --- | --- |
| O=C(O)c1cn(C2CC2)c2cc(N3CCNCC3)c(F)cc2c1=O | 12.6 s |
| Clc1ccccc1CN1CCc2sccc2C1 | 11.8 s |
| CCc1cc(C(N)=S)ccn1 [ETHIONAMIDE] | 12.4 s |

Given item C[C@H](CS)C(=O)N1CCC[C@H]1C(=O)O , the value recorded as its PT is 12.1 s

Looking up O=C(O)c1cc(/N=N/c2ccc(S(=O)(=O)Nc3ccccn3)cc2)ccc1O , I found its PT recorded as 12.7 s

====

Reported PT values for a set of molecules
Species on record: Rattus norvegicus
procedure-details: Open TG-GATES - Regimen: Single
Assay type: toxicity, organism-based, Sprague-Dawley
Parameters: regimen Single, gender Male, age 6 weeks
protocol-conditions: in vivo, po, 300 mg/kg, 6 h, tissue Blood, route gavage, dose level Middle
Please respond with the number in s and leave the unit unwritten.

Known PT results, listed for orientation:
| molecule | PT [s] |
| --- | --- |
| O=C(O)c1cn(C2CC2)c2cc(N3CCNCC3)c(F)cc2c1=O | 12.4 |
| O=C(O)c1cc(/N=N/c2ccc(S(=O)(=O)Nc3ccccn3)cc2)ccc1O | 12.6 |
| CCc1cc(C(N)=S)ccn1 [ETHIONAMIDE] | 13.5 |
| Clc1ccccc1CN1CCc2sccc2C1 | 12.1 |

Shifting focus to the molecule that follows.
Sure, the documented PT for C[C@H](CS)C(=O)N1CCC[C@H]1C(=O)O is 12.1

====

Eos values by entry
Species: Rattus norvegicus
procedure-details: Open TG-GATES - Regimen: Daily Repeat
Format: toxicity, organism-based, Sprague-Dawley
Design: regimen Daily Repeat, gender Male, age 6 weeks
protocol-conditions: in vivo, po, 0 mg/kg, […], tissue Blood, route gavage, dose level Control, time 14 day
Answer as a quantity: numeral, then unit.

Some entries whose results are on file:
| structure-string | outcome-measure | result |
| --- | --- | --- |
| CO[C@H]1/C=C/O[C@@]2(C)Oc3c(C)c(O)c4c(O)c(c(/C=N/N5CCN(C)CC5)c(O)c4c3C2=O)NC(=O)/C(C)=C\C=C\[C@H](C)[C@H](O)[C@@H](C)[C@@H](O)[C@@H](C)[C@H](OC(C)=O)[C@@H]1C | Eos | 0.8% |
| COc1ccc(Cc2nccc3cc(OC)c(OC)cc23)cc1OC | Eos | 1% |
| CCCC(CCC)C(=O)O | Eos | 1% |

Let us examine a further case.
Just so you know, measured Eos for Cn1c(=O)c2[nH]cnc2n(C)c1=O.O came out at 0.8%

====

Species: Rattus norvegicus
procedure-details: Open TG-GATES - Regimen: Daily Repeat
Assay type: toxicity, organism-based, Sprague-Dawley
Parameters: regimen Daily Repeat, gender Male, age 6 weeks
protocol-conditions: in vivo, po, 0 mg/kg, […], tissue Blood, route gavage, dose level Control, time 28 day
outcome-measure: Hb (g/dL)
Note: unit g/dL is implicit; provide only the numeric part.

Known Hb results, listed for orientation:
| compound | Hb, g/dL |
| --- | --- |
| COc1ccc2c(c1)c(CC(=O)O)c(C)n2C(=O)c1ccc(Cl)cc1 | 14.6 |
| CO[C@H]1/C=C/O[C@@]2(C)Oc3c(C)c(O)c4c(O)c(c(/C=N/N5CCN(C)CC5)c(O)c4c3C2=O)NC(=O)/C(C)=C\C=C\[C@H](C)[C@H](O)[C@@H](C)[C@@H](O)[C@@H](C)[C@H](OC(C)=O)[C@@H]1C | 15.7 |
| CSc1ccc2c(c1)N(CCC1CCCCN1C)c1ccccc1S2 (centres undefined) | 15.2 |
| Cn1c(=O)c2[nH]cnc2n(C)c1=O.O | 14.8 |
| C[C@H](CS)C(=O)N1CCC[C@H]1C(=O)O | 14.5 |
| CC(=O)Oc1ccccc1C(=O)O | 15.7 |
| CN(C)CCC=C1c2ccccc2CCc2ccccc21 | 14.9 |
| CCc1cc(C(N)=S)ccn1 [ETHIONAMIDE] | 15.6 |
| O=C(O)c1cn(C2CC2)c2cc(N3CCNCC3)c(F)cc2c1=O | 14.8 |
| Clc1ccccc1CN1CCc2sccc2C1 | 15.5 |

For this compound ( O=C(O)c1cc(/N=N/c2ccc(S(=O)(=O)Nc3ccccn3)cc2)ccc1O ), measured Hb is 15.6

Quick note, Hb for NC(=O)N/N=C/c1ccc([N+](=O)[O-])o1 landed at 15

The recorded Hb for COc1ccc(Cc2nccc3cc(OC)c(OC)cc23)cc1OC is 14.5

Consider NC(=O)N1c2ccccc2C=Cc2ccccc21 [CARBAMAZEPINE] . Its measured Hb is 15.3

====

Species on record: Rattus norvegicus
procedure-details: Open TG-GATES - Regimen: Daily Repeat
Type: toxicity, organism-based, Sprague-Dawley
Set-up: regimen Daily Repeat, gender Male, age 6 weeks
protocol-conditions: in vivo, po, 0 mg/kg, […], tissue Plasma, route gavage, dose level Control, time 7 day
outcome-measure: GLC (mg/dL)
Field format: number, assumed mg/dL, no unit text.

Some solved cases for reference:
| molecule | unit-name | GLC |
| --- | --- | --- |
| CCc1cc(C(N)=S)ccn1 [ETHIONAMIDE] | mg/dL | 195.6 |
| COc1ccc2c(c1)c(CC(=O)O)c(C)n2C(=O)c1ccc(Cl)cc1 | mg/dL | 202.2 |
| COc1ccc(Cc2nccc3cc(OC)c(OC)cc23)cc1OC | mg/dL | 203.2 |
| O=C(O)c1cn(C2CC2)c2cc(N3CCNCC3)c(F)cc2c1=O | mg/dL | 186.8 |
| Clc1ccccc1CN1CCc2sccc2C1 | mg/dL | 195.4 |
| CSc1ccc2c(c1)N(CCC1CCCCN1C)c1ccccc1S2 (stereo not given) | mg/dL | 181.2 |
| NC(=O)N/N=C/c1ccc([N+](=O)[O-])o1 | mg/dL | 196.2 |
| C[C@H](CS)C(=O)N1CCC[C@H]1C(=O)O | mg/dL | 198 |
| CN(C)CCC=C1c2ccccc2CCc2ccccc21 | mg/dL | 185.8 |

The molecule listed as CC(=O)Oc1ccccc1C(=O)O shows GLC equal to 210.8
